The measurements presented in this section are drawn from patent US12522597B2.

Tested on: MDR1
Assay: MDCK-MDR1 permeability assay (BBB penetration potential)
Type: in vitro ADME
Details: dog, MDCK-MDR1, pH 7.4, MDCK-MDR1: Efflux
# cutoff 10 applies to efflux ratio at 120 min, 5 μM; >= gives fulfilled, < gives not fulfilled

COMPOUND	GROUP
Cc1nc(-c2ccc(-c3ccc(O[C@H]4C[C@@H]5CCC[C@@H](N5)[C@H]4F)nn3)c(O)c2)co1 (single isomer, unassigned)	not fulfilled
Cn1ccc2cc(-c3ccc(O[C@@H]4C[C@H]5CCC[C@H](N5)[C@@H]4F)nn3)c(O)cc2c1=O (single isomer, unassigned)	fulfilled
Oc1cc(-n2ccnn2)ccc1-c1ccc(O[C@H]2C[C@@H]3CCC[C@@H](N3)[C@H]2F)nn1 (single isomer, unassigned)	not fulfilled
Cc1nc(-c2ccc(-c3ccc(O[C@@H]4C[C@H]5CCC[C@H](N5)[C@@H]4F)nn3)c(O)c2)cs1 (single isomer, unassigned)	not fulfilled
Oc1cc(-c2ccc3nccn3c2)ccc1-c1ccc(O[C@@H]2C[C@H]3CCC[C@H](N3)[C@@H]2F)nn1 (single isomer, unassigned)	fulfilled
Cc1cc(-c2ccc(-c3ccc(O[C@@H]4C[C@H]5CCC[C@H](N5)[C@@H]4F)nn3)c(O)c2)cnn1 (single isomer, unassigned)	fulfilled
Cc1cc(-c2ccc(-c3ccc(O[C@@H]4C[C@H]5CCC[C@H](N5)[C@@H]4F)nn3)c(O)c2)co1 (single isomer, unassigned)	not fulfilled
CNC(=O)c1ccc2cc(-c3ccc(O[C@H]4C[C@@H]5CCC[C@@H](N5)[C@H]4F)nn3)c(O)cc2n1 (single isomer, unassigned)	fulfilled
Cn1cc(-c2cc(O)c(-c3ccc(O[C@@H]4CC5CC[C@H](N5)[C@@H]4F)nn3)cn2)cn1 (single isomer, unassigned)	fulfilled
Oc1cc(-c2ccc3cncn3c2)ccc1-c1ccc(O[C@H]2C[C@@H]3CCC[C@@H](N3)[C@H]2F)nn1 (single isomer, unassigned)	not fulfilled
Cc1ncc(-c2ccc(-c3ccc(O[C@@H]4C[C@H]5CCC[C@H](N5)[C@@H]4F)nn3)c(O)c2)o1 (single isomer, unassigned)	not fulfilled
Oc1cc(-c2nnco2)ccc1-c1ccc(O[C@H]2C[C@@H]3CC[C@@H](N3)[C@H]2F)nn1 (single isomer, unassigned)	not fulfilled
Cn1ccc(-c2cc(O)c(-c3ccc(O[C@H]4C[C@@H]5CCC[C@@H](N5)[C@H]4F)nn3)cc2F)cc1=O (single isomer, unassigned)	fulfilled
Cn1cc(-c2cc(O)c(-c3ccc(O[C@@H]4C[C@H]5CCC[C@H](N5)[C@@H]4F)nn3)cc2F)cn1 (single isomer, unassigned)	not fulfilled
O=c1cc(-c2cc(O)c(-c3ccc(O[C@H]4C[C@@H]5CCC[C@@H](N5)[C@H]4F)nn3)cc2F)cc[nH]1 (single isomer, unassigned)	fulfilled
Cc1cncc(-c2ccc(-c3ccc(O[C@H]4C[C@@H]5CCC[C@@H](N5)[C@H]4F)nn3)c(O)c2)c1 (single isomer, unassigned)	fulfilled
Cn1cc(-c2cc(O)c(-c3ccc(O[C@@H]4C[C@H]5CC[C@H](N5)[C@@H]4F)nn3)cc2F)cn1 (single isomer, unassigned)	not fulfilled
O=c1cc(-c2ccc(-c3ccc(O[C@@H]4C[C@H]5CCC[C@H](N5)[C@@H]4F)nn3)c(O)c2)cc[nH]1 (single isomer, unassigned)	fulfilled
Cc1ccc(-c2ccc(-c3ccc(O[C@@H]4C[C@H]5CCC[C@H](N5)[C@@H]4F)nn3)c(O)c2)s1 (single isomer, unassigned)	not fulfilled
Cn1cnc(-c2ccc(-c3ccc(O[C@@H]4C[C@@]5(C)CCC[C@](C)(N5)[C@@H]4F)nn3)c(O)c2)cc1=O (single isomer, unassigned)	fulfilled
Oc1cc(-c2cn[nH]c2)ccc1-c1ccc(O[C@@H]2C[C@H]3CC[C@H](N3)[C@@H]2F)nn1 (single isomer, unassigned)	fulfilled
Oc1cc(-c2cn[nH]c2)ccc1-c1ccc(O[C@H]2C[C@@H]3CCC[C@@H](N3)[C@@H]2F)nn1 (single isomer, unassigned)	not fulfilled
Oc1cc(-c2nncs2)ccc1-c1ccc(O[C@H]2C[C@@H]3CCC[C@@H](N3)[C@H]2F)nn1 (single isomer, unassigned)	not fulfilled
